system: RIVA; test: growth inhibition by drug plus 177Lu-lilotomab satetraxetan (1 - RLU/untreated control) (fraction); higher = stronger inhibition; conditions: 10 nM; time (day): 6; 177Lu-lilotomab satetraxetan 0.5 ug/ml
The following compounds are shown together with reported growth inhibition by drug plus 177Lu-lilotomab satetraxetan values.
property_measured: growth inhibition by drug plus 177Lu-lilotomab satetraxetan

INSERT INTO measurements (compound, observed) VALUES
  ('OCCn1cc(-c2cnc3nnn(Cc4ccc5ncccc5c4)c3n2)cn1', 0.603),
  ('CNC(=O)c1ccc(N2C(=S)N(c3ccc(C#N)c(C(F)(F)F)c3)C(=O)C2(C)C)cc1F [MDV3100 (Enzalutamide)]', 0.602),
  ('Cc1ccc(NC(=O)c2ccc(CN3CCN(C)CC3)cc2)cc1Nc1nccc(-c2cccnc2)n1', 0.595),
  ('COc1ccc(CNC(=O)Nc2ncc([N+](=O)[O-])s2)cc1', 0.609),
  ('Cc1ccc(F)c(NC(=O)Nc2ccc(-c3cccc4[nH]nc(N)c34)cc2)c1', 0.585);
